Molecular target: Histone deacetylase 2 (Homo sapiens)
Sequence (Q92769 whole entry): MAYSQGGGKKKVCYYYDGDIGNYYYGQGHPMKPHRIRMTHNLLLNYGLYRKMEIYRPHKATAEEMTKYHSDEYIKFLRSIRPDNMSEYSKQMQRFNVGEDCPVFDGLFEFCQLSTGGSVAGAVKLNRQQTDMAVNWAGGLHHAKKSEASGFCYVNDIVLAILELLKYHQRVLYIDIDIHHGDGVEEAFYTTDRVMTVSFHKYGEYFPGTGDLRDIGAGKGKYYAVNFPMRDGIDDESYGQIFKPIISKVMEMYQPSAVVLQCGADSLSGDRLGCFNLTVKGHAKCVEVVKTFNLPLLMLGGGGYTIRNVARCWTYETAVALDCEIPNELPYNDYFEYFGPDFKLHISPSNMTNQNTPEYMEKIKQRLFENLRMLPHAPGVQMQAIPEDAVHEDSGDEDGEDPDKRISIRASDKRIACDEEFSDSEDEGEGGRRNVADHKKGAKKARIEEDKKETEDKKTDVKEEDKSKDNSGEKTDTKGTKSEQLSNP
Assay: Inhibition of full-length recombinant human C-terminal GST tagged HDAC2 expressed in Sf9 insect cells using aminoluciferin peptide substrate at 100 nM preincubated for 3 hrs followed by substrate addition and measured after 30 mins by HDAC-Glo I/II chemiluminescence assay
Conditions: time 3.5 hrs
quantity measured: inhibition (%)
I only need the number, in %, no unit after it.

Answered examples (10):
smi | quantity measured | units label | result value
Nc1ccc(-c2ccc(F)cc2)cc1NC(=O)c1cn(Cc2cc3ccccc3s2)nn1 | inhibition | % | 7
Nc1ccc(-c2ccccc2)cc1NC(=O)CCc1cn(-c2ccc(O)cc2)nn1 | inhibition | % | 3
Cc1cccc(C)c1NC(=O)Cn1cc(CCC(=O)Nc2cc(-c3ccc(F)cc3)ccc2N)nn1 | inhibition | % | 18
Nc1ccc(-c2ccccc2)cc1NC(=O)c1cn(CCc2ccccc2)nn1 | inhibition | % | 12
Nc1ccc(-c2ccc(F)cc2)cc1NC(=O)CCc1cn(Cc2cccc(C(=O)O)c2)nn1 | inhibition | % | 0
Nc1ccc(-n2cc(C(=O)Nc3cc(-c4ccsc4)ccc3N)nn2)cc1 | inhibition | % | 31
Nc1ccc(-c2cccs2)cc1NC(=O)c1ccc(-c2cn(CCc3cccc(Cl)c3)nn2)cc1 | inhibition | % | 22
Nc1ccc(-c2ccsc2)cc1NC(=O)CCc1cn(CCc2ccc(Cl)cc2)nn1 | inhibition | % | 2
Nc1ccc(-c2cccs2)cc1NC(=O)c1ccc(-c2cn(Cc3ccc4ccccc4c3)nn2)cc1 | inhibition | % | 12
Nc1ccc(-c2ccccc2)cc1NC(=O)CCc1cn(CCc2cccc(Cl)c2)nn1 | inhibition | % | 1

Param item = Nc1ccc(-c2cccnc2)cc1NC(=O)CCc1cn(CC(=O)c2ccccc2)nn1 ; retrieve measured inhibition. 3

Okay, and Nc1ccc(-n2cc(-c3cccc(C(=O)Nc4cc(-c5cccs5)ccc4N)c3)nn2)cc1 ? 30
